- Target entity: Cellular tumor antigen p53 (Homo sapiens)
- Protocol description: Primary qHTS for small molecule compounds that upregulate eGFP-tagged delta133p53alpha (in N-terminal) cells. (AID 2060322);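 also: cells pre-induced with doxycycline then dosed without doxycycline; 0% = DMSO vehicle and 100% = reference activator; nearly all actives have a fitted effect of over 75% in size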
- Condition description: NCI-H358 eGFP-delta133p53alpha fluorescence, 24 h; hits give high values
Records with an inconclusive call do not appear.
Record form. Attribute: activation. Fill in for each entry.
Please respond with the number in % and leave the unit unwritten.

Prompt: For the compound C=C1C(OC(C)=O)CCC2(C)CC3(O)OC(=O)C(C)=C3CC12 (stereo not given) , what activation is on record?
Response: -3.57

Prompt: Suppose we examine the compound CC(C)C1(O)C=C2C(=O)CC3C(C)(C(=O)O)CCCC3(C)C2CC1 (stereo not given) ; what activation value has been reported?
Response: -12.2

Prompt: Consider the compound shown here: `CCC(=C(c1ccc(O)cc1)c1ccc(OCCNC)cc1)c1ccccc1` What is its recorded activation?
Response: 62.8

Prompt: Item under review: `N=c1ccn2c(n1)O[C@H]1[C@@H](O)[C@@H](CO)O[C@H]12` . Reported activation?
Response: 18.1

Prompt: Recorded activation of `CCC(=O)Oc1ccc2c(c1)CC[C@@H]1[C@@H]2CC[C@@]2(C)[C@H]1C[C@@H](OC(=O)CC)[C@@H]2OC(=O)CC` , please.
Response: -8.47

Prompt: For the compound shown here, `CC1=CC(=O)[C@]2(O[C@@H]3O[C@@H](C)[C@H](O)[C@@H](O)[C@H]3OC(=O)/C=C/c3ccccc3)C=CO[C@@H](O[C@@H]3O[C@H](CO)[C@@H](O)[C@H](O)[C@H]3O)[C@H]12` , give the reported activation.
Response: 3.05

Prompt: Record request: activation value, item `c1ccc(-c2ccc(CNc3nc(-c4ccccn4)nnc3-c3ccccc3)cc2)cc1`
Response: -11.7

Prompt: Record request: activation value, item `O=C(C=Cc1cccnc1)NCCCCC1CCN(C(=O)c2ccccc2)CC1`
Response: 8.39

Prompt: // returns reported activation for input `CO/N=C(/C(=O)N[C@@H]1C(=O)N2C(C(=O)OCOC(=O)C(C)(C)C)=C(C)CS[C@H]12)c1csc(N)n1`
Response: -20.9

Prompt: // returns reported activation for input `C[C@@H]1CN(c2c(F)c(N)c3c(=O)c(C(=O)O)cn(C4CC4)c3c2F)C[C@H](C)N1`
Response: 22.7

----------
- Target entity: Cellular tumor antigen p53 (Homo sapiens)
- Protocol description: Primary qHTS for small molecule compounds that upregulate eGFP-tagged delta133p53alpha (in N-terminal) cells. (AID 2060322);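 also: cells pre-induced with doxycycline then dosed without doxycycline; 0% = DMSO vehicle and 100% = reference activator; nearly all actives have a fitted effect of over 75% in size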
- Condition description: NCI-H358 eGFP-delta133p53alpha fluorescence, 24 h; hits give high values
Records with an inconclusive call do not appear. Square brackets hold non-standard residues; d marks the D form. Peptide text beside a SMILES is read from it. Hyp = O=C(O)[CH]1C[CH](O)CN1; Phe(ol) = N[CH](CO)Cc1ccccc1; Iva = CC[C](C)(N)C(=O)O; Aib = CC(C)(N)C(=O)O
So I've got a bunch of molecules here, and I need their activation values.
Record the value in %, omitting the unit from your answer.

Prompt: So what does the record say about activation for `Nc1ncnc2c1ncn2[C@@H]1O[C@H](COP(=O)(O)O)[C@@H](O)[C@H]1O` ?
Response: 5.08

Prompt: # activation lookup, item `CCCCCCCC(=O)[O-].CCCCCCCC(=O)[O-].[Zn+2]`
Response: 14.1

Prompt: // activation lookup, key: `C=CCCCCCCCCC(=O)O`
Response: -20.9

Prompt: Please look up its activation: `CC(=O)Oc1ccc(C(=C2CCCCC2)c2ccc(OC(C)=O)cc2)cc1`
Response: 9.6

Prompt: Data request, read-out activation, for `CC1=C(/C=C/C(C)=C/C=C/C(C)=C/C(=O)Nc2ccc(O)cc2)C(C)(C)CCC1`
Response: -39.3

Prompt: // query activation value for entry `NCCCC[C@H](N[C@@H](CCc1ccccc1)C(=O)O)C(=O)N1CCC[C@H]1C(=O)O`
Response: -3.95

Prompt: Given CC[C@]1(O)C[C@@H]2CN(CCc3c([nH]c4ccccc34)[C@@](C(=O)OC)(c3cc4c(cc3OC)N(C=O)[C@@H]3C45CCN4CC=C[C@](CC)([C@H]45)[C@@H](OC(C)=O)[C@]3(O)C(=O)OC)C2)C1 (some centres not stated) , state its recorded activation.
Response: -1.44

Prompt: Recorded activation of `CCCCCCCCCCCCCCC[C@H](O)[C@H](N)CO` , please.
Response: 14.1

Prompt: Returns the measured activation for the input molecule. Input: `OCc1ccc(Cl)cc1Cl`
Response: -7.53

Prompt: What activation value was documented for this molecule, CC(Cc1cccc(C(F)(F)F)c1)NCCOC(=O)c1ccccc1 (configuration not stated) ?
Response: 17.6

Prompt: Fill blank: measured activation of the molecule CCC(C)(NC(=O)C(CCC(N)=O)NC(=O)C1CC(O)CN1C(=O)C(C)(C)NC(=O)C(C)(C)NC(=O)C(CC(C)C)NC(=O)CNC(=O)C(NC(=O)C(C)(C)NC(=O)C(C)(C)NC(=O)C(C)(C)NC(=O)C(Cc1ccccc1)NC(C)=O)C(C)C)C(=O)N1CC(O)CC1C(=O)NC(C)(C)C(=O)NC(CO)Cc1ccccc1 (configuration not stated) (Ac-F[Aib][Aib][Aib]VGL[Aib][Aib][Hyp]Q[Iva][Hyp][Aib][Phe(ol)]; configuration not given here) is ____.
Response: 23.7

Prompt: May I ask what activation has been recorded for `CCc1nc(C(N)=O)c(Nc2ccc(N3CCC(N4CCN(C)CC4)CC3)c(OC)c2)nc1NC1CCOCC1` ?
Response: -44.7

Prompt: Using the record for `C[C@H](O)C(=O)Nc1c(I)c(C(=O)NC(CO)CO)c(I)c(C(=O)NC(CO)CO)c1I` , report its activation.
Response: 10.9

Prompt: Requested read-out: activation. Entry: `CC(=O)OCC(=O)[C@@]12N=C(C)O[C@H]1C[C@H]1[C@@H]3CCC4=CC(=O)C=C[C@]4(C)[C@@H]3[C@@H](O)C[C@@]12C`
Response: -1.97

Prompt: Request the reported activation associated with CCNC(=O)Nc1ccc(-c2nc3c(c(N4CCOCC4C)n2)CCN(C2COC2)C3)cc1 (configuration not stated)
Response: 12.4

Prompt: Look up activation for this molecule: `CNC(=O)c1cc(Oc2ccc(NC(=O)c3cccc(C(F)(F)F)c3)cc2)ccn1`
Response: 8.04

Prompt: Give the measured activation of CC1(C(=O)O)CCCC2(C)C3CCC4CC3(CCC12)CC4C(=O)O (configuration not stated) .
Response: -3.05

Prompt: Fill in the blank: the reported activation of `CC(=O)OC[C@@H]1O[C@@H](n2ccc(=O)[nH]c2=O)[C@H](OC(C)=O)[C@H]1OC(C)=O` is ____.
Response: 5.73

Prompt: Query: activation; subject: `CCCN1CCC[C@@H](c2cccc(S(C)(=O)=O)c2)C1`
Response: -7.64

Prompt: Entry `CC(C)CC(=O)OC[C@@]1(O)C[C@@]23CC[C@H]4[C@@](C)(CCC[C@@]4(C)C(=O)O)[C@@H]2CC[C@@H]1C3` has what activation?
Response: -13

Prompt: Which activation value is on record for NC(=O)NC1NC(=O)NC1=O (configuration not stated) ?
Response: -17.5

Prompt: What measured activation goes with CC1(CO)CC[C@]2(C(=O)O[C@@H]3O[C@H](CO)[C@@H](O)[C@H](O)[C@H]3O)CC[C@]3(C)C(=CCC4[C@@]5(C)C[C@H](O)[C@H](O[C@@H]6OC[C@@H](O)[C@H](O)[C@H]6O)[C@@](C)(CO)C5CC[C@]43C)C2C1 (some centres not stated) ?
Response: -16

----------
- Protocol description: BET inhibitor-based combinations targeting novel dependencies in MECOM-rearranged (r) AML: MV-4-11 cell line (AID 2202233); also: nearly all actives have a fitted effect of over 45% in size
- Condition description: MV-4-11 AML viability, CellTiter-Glo luminescence, 48 h; series mostly up to 46 µM
Inconclusive results are not listed. Activity calls are given as the source filed them. The call rests on the fitted dose curve; in most records, active means well fitted inhibition curve with a large enough effect; inconclusive means small, poorly fitted or top-dose-only effect; inactive means no such curve, though single readings can be large or run the other way.
Field 'call' accepts y (active), n (inactive)

Prompt: Which result was noted for this compound in the test: `CC(=O)Oc1ccccc1C(=O)O`
Response: n

Prompt: Which result was noted for this compound in the test: `Cc1nc(Nc2ncc(C(=O)Nc3c(C)cccc3Cl)s2)cc(N2CCN(CCO)CC2)n1`
Response: y

Prompt: What classification did `Cc1ccc(N(CC2=NCCN2)c2cccc(O)c2)cc1` end up with in this test?
Response: y

Prompt: Each compound tested received a call. Report the one for `COc1cc2c(N3CCN(C(=O)Nc4ccc(OC(C)C)cc4)CC3)ncnc2cc1OCCCN1CCCCC1` .
Response: y

Prompt: Record request — test call for `COc1ccc([C@@H]2Sc3ccccc3N(CCN(C)C)C(=O)[C@@H]2OC(C)=O)cc1`
Response: n

Prompt: What did the test return for `COc1ccc(Nc2cc(-c3cnc(N)nc3)nc(N3CCOCC3)n2)cn1` ?
Response: y

Prompt: Per the assay record, what outcome was assigned to `Cc1ccc(C(=O)Nc2ccc(Oc3cc4cnn(C)c4cc3-c3cn[nH]c3)c(F)c2)c(=O)n1-c1ccc(F)cc1` ?
Response: y

Prompt: What outcome does the record of this test show for `Fc1ccc(CNc2ncnc3ccc(F)cc23)cc1` ?
Response: y

Prompt: So what was the verdict on `CCOC(=O)[C@H]1O[C@@H]1C(=O)N[C@@H](CC(C)C)C(=O)NCCC(C)C` in this test?
Response: y

Prompt: Could you please tell me the result logged for `CCOC(=O)c1ccnc(CNCC(=O)N(CC)CCN(C)C)c1` in this assay?
Response: n

Prompt: // param item: `Clc1cc2c(NC3CCCC3)nnc(-c3ccncc3)c2cc1Cl` ; yields the recorded call
Response: n

Prompt: Field: outcome | Entry: `COc1ccc2c(Oc3ccc(NC(=O)c4c(C)n(CC(C)(C)O)n(-c5ccccc5)c4=O)cc3F)ccnc2c1`
Response: y

Prompt: How did this test come out for `COc1ccc(C=Cc2cc(OC)c(OC)c(OC)c2)cc1NC(=O)[C@H](N)CO` ?
Response: y

Prompt: // return assay outcome for `Oc1ccc(-c2nc(-c3ccc(F)cc3)c(-c3ccncc3)[nH]2)cc1`
Response: y

Prompt: # fetch the recorded call for `CCCCC(F)(F)[C@@]1(O)CC[C@H]2[C@H](CC(=O)[C@@H]2CCCCCCC(=O)O)O1` here
Response: y

Prompt: What outcome does the record of this test show for `O=C(Nc1cc(C(F)(F)F)cc(C(F)(F)F)c1)c1cc(Cl)ccc1O` ?
Response: y

Prompt: # outcome recorded in this test, key = `NC(=O)OCC(COC(N)=O)c1ccccc1`
Response: n

Prompt: Tell me the recorded outcome of this test for `O=C(/C=C\n1cnc(-c2cc(C(F)(F)F)cc(C(F)(F)F)c2)n1)NNc1cnccn1` .
Response: y

Prompt: Look up the recorded call for `COc1cc(N2CCC(N(C)C)CC2)ccc1Nc1ncc(Cl)c(Nc2ccccc2P(C)(C)=O)n1` in this test.
Response: y

Prompt: Write down the call the test reported for this compound. Item: `CCOc1cc2ncc(C#N)c(Nc3ccc(OCc4ccccn4)c(Cl)c3)c2cc1NC(=O)/C=C/CN(C)C`
Response: y

Prompt: For `CN1CCC(COc2cnc(-c3cccc(Cn4nc(-c5cccc(C#N)c5)ccc4=O)c3)nc2)CC1` , what call appears in the results of this test?
Response: y
